assay: yeast display, Sf9 membrane polyspecificity reagent, FACS + sequencing; frameworks hold sequencing errors
Measure: polyreactivity (PSR sort gate)

# example entries with known answers
QVQLVESGGGLVQAGGSLRLSCAASGRIFTTYVMGWYRQAPGKEWELVAAISARGSTYYADSVKGRFTISRDNAKNTVYLQMNSLKPEDTEVYYCAAGPRLPVYYGYPRATYNDWGQGTQVTVSS ... low polyreactivity
QVQLVESGGGLVQAGGSLRLSCAASGSTFVGYAMVWYRQAPGKERELVAAISYSGGSTYYADSVKGRFTISRDNAKNTVYLQMNSLKPEDTAVYYCAAEWSRHYYSGPRYDSWGQGSQVTVSS ... low polyreactivity
QVQLVESGGGLVQAGGSLRLSCAASGRIFNAYAMGWYRQAPGKERELVATITGSGGRTHYADSVKGRFTISRDNAKNTVYLQMNSLKPEDTAVYYCAATAQYYHYHLAKYDYWGQGTQVTVSS ... low polyreactivity
QVQLVESGGGLVQAGGSLRLICAASGSTFGYYAMGWYRKAPGKERELVAVITYSGGSTYYADSVKGRFTISRDNAKNTVNLQMNSLKPEDTSVYYCSAVIGVWYYYTYDYWGQGTQVTVSS ... low polyreactivity
QVQLVESGGGLVQAGGSLRLSCAASGLTFPWYAMGWYRQAPGKERELVASINSSTGSTYYADSVKGRFTISRDNAKNTVYLQMNSLKPEYTAVYYCAAVEYGNMDWGQGTQVTVSS ... low polyreactivity

For every listed record, write down its polyreactivity (PSR sort gate).
1. QVQLVESGGGLVQAGGSLRLSCAASGRTFSLYTMGWYRQAPGKERELVAAISSGDSTNYADSVKGRFTISRDNAKNTVYLQMNSLKPEDTAVYYCAKQQDSTSEFSTSDRRQYDYWGQGTQVTVSS
2. QVQLVESGGGLVQAGGSLRLSCAASGFIFRKYAMGWYRQAPGKERELVAAITASGGSTYYGDSVKGRFTISRDNAKNTVYLQLNSLKPEDTAVYYCATDFHGAERWLKYVYWGQGTQVTVSS
3. QVQLVESGGGLVQAGGSLRLSCAASGSTIHYYAMGWYRQAPGKERELVAAISSSGVSTYYADSVKGRFTISRDNAKNTVYLQMNSLKPEDTAVYYCNRASVFHYRWYYYGGQGTQVTVSS
4. QVQLVESGGGLVQAGGSLRLSCAASGFTFNYNAMGWYRQAPRKERELVAAISRSGGRTYYADSVKGRFTISRDKAKNTVYLQMNSLKPADTAVYYCAADSRTNGYDYWGQGTQVTVSS
5. QVQLVESGGGLVQAGGSLRLSCAASGSIFPHNAMGWYRQAPGKERELVAAISWRDVITYYADSVKGRFTISRDNAKNTVYLQMNSLKPEDTAVYYCAAELRVYGVDYEYWGQGTQVTVSS

Result:
low polyreactivity
high polyreactivity
high polyreactivity
high polyreactivity
high polyreactivity

For this sequence ( `QVQLVESGGGLVQAGGSLRLSFAASGSIFVQYAMRWYRPAPGKERELVAAIDFSDTSTYYADSVKGRFTISRDNAKNTVYLHMNSLKPEDTAVYYCAAEEDSPCRSAIAEEEYWGQGTLVTVSS` ), measured polyreactivity (PSR sort gate) is low polyreactivity

----------
test: yeast display, Sf9 membrane polyspecificity reagent, FACS + sequencing; frameworks hold sequencing errors
Measure: polyreactivity (PSR sort gate)

QVQLVESGVGLVQAGGSLRLSCAASGSIFYSNAMGRYRQAPGKERELVASIRGSGVSTYYADSVKGRFTISRDNAKNTVYLQMNRLKPEDTAVYYCAARYGRSYFGYYYWGQGTQVTVSS ... high polyreactivity
QVQLVESGGGLVQAGGSLRLSCAASGSTFARYTMGWYRQAPGKERELVATITNRGGSTYYADSVKGRFTISRDNAKNTVYLQMNSLKPEVTAVYYCNKRYYWGGYDYWGQGTQVTVSS ... high polyreactivity
QVQLVESGGGLVQAGGSLRLSCAASGIIFQRNDIGWYREAPGKERELVANIRDGGITYADSVKGRFTISRDNAKNTVYLQMNSLKPDDTAVYYCALEDTSPGYGDQSSNAAYYYWGQGTQVTVSS ... low polyreactivity
QVQLVESGGGLVQAGGSLRLICAASGRIFYYYTMGWYRQAPGKERELVAAITRSGSSTYADSVKGRFTISRDNAKNTVYLQMNSLKPEDTAVYYCAADYIRRYDYWGQGTQVTVSS ... low polyreactivity
QVQLVESGGGLVQAGGSLRLSCAASGRIFRSYAMGWYRQAPGKERELVAAITSGGSTNYADSVKGRFTISRDNAKNTVYLQMNSLKPEDTAVYYCNADRWKSGYWRYDYWGQGTQVTVSS ... low polyreactivity
QVQLVESGGGLVQAGGSLRLSCAASGFTFESYTMGWYRQAPGKESELVAAINSGTSTYYADSVKGRFTISRDNAKNTVYLQMNSLKPEDTAVYYCNARRYRRYRKYDYWGQGTQVTVSS ... high polyreactivity
QVQRVESGGGLVQAAGSLRLSCAASGRTFIYYAKGWYRHEPGKERELVAGISRNGGRTYYADSVKGRFTISRDNAKNTVYLQMNSLKPEDTAVYYCNAYPPSRHDYCGQGTQVTVSS ... high polyreactivity
QVQLVESGGGLLQAGGSLRLSCAASGSIYTPYAMGWSRQAPGKERELVATITQSGSSTYYADSVKGRFTISRDNAKNSVYLQMNSLKPEDTAVYYCAADVQNISFDYWGQGTQVTVSS ... low polyreactivity
QVQLVESGGGLVQAGGSLRLSCAASGFILRTNAMGWYRQAPGKERELVAAISVSGGRTYYADSVKGRFTISRDNAKNTVYLQMNSLKPEDTAVYYCAARDSTKLLSGYTHYYWGQGTQVTVSS ... high polyreactivity
QVQLVESGGGLVQAGGSLRLSCAASGSTFPSYAMGWYRQAPGKERELVAAINSGGGTNYADSVKGRFTISRDTAKNTVYLQMNSLKPEDTAVYYCAKARYDYTKPEGGYWGQGTHVTVSS ... low polyreactivity

Please find the next sequence below.
// polyreactivity (PSR sort gate) value for `QVQLVESGGGLVQAGGSLRLSCAASGRIFAGYAMGWYRQAPGKERELVAAIRSGGSTNYADSVKGRFTISRDNAKNTVYLQMNSLKPEDTAVYYCAAETPVIPWDEMDYWGQGTQVTVSS` : low polyreactivity

----------
assay: yeast display, Sf9 membrane polyspecificity reagent, FACS + sequencing; frameworks hold sequencing errors
Measure: polyreactivity (PSR sort gate)

Below, 5 sequences whose answers are already recorded.
QVQLVESGGGLVQEGGSLRLSCAASGSTFAANTMGWYRQAPGKERELVAAITVRGGSTYYADSVKGRFSMSRDNAKNTVYLQTNSLKPEDTAVYDCAAERPPYGYLVVGYVSTQYYYWGQGTQVTVSS ... low polyreactivity
QVQHVESGGGLLQAGGSLRLSCAASVSTLSKNAMGWYRQAPGKERELVAAITRRGGSTSYADSVKGRFTISRDNAKNTVYFQMNSLKPEDTAVYYCNAVSKYDYGYWGQGTQVTVSS ... high polyreactivity
QVQLQESGGGLVQAGGSLRLSCAASGTISPLPAMGWYRQAPGKEREFVAGIDTGAITNYADSVKGRFTISRDNGKNTVYLQMNSLNPEDTAVYYCAVFRGAYDYYEGYYTYWGQGTQVTVSS ... low polyreactivity
QVQLVESGGGLVQAGGSLRLSCAASGRTFRYYSMGWYRQAPGKERELVAAITGSGARTYYADSVKGRFTISRDNAKNTVYLQMNSLKPEDTAVYYCAADSLFYDDRYDYWGQGTQVTVSS ... high polyreactivity
QLQLVESGGALVQAGGSLRLSCAASGSTFTVNGMGWYRQAPGKERELVAAIDGGDGSTYYADSVKGRFTISRDNAKNTVYLQMNSLKPEDTAVYYCAADPPGFTQYGYWGQGTKVTVSS ... low polyreactivity

// input: 3 sequences below; output: polyreactivity (PSR sort gate) for each
1. QVQLVESGGGLVQAGGSLRLSCAASRSIFSAYAMGWYRQAPGKERELVAAISTSGYTNYADSVKGRFTISRDNAKNTVYLQMKSLTPEDTAVYYCAADRVYGDGTAGYGYEFDYWGQVTQVTVSS
2. QVQLVESGGGLVQAGGSLRLSCAASGFIFGNNDMGWYRPAPGKERELVAAISNSGGRTYYADSVKGRFTISRDNAKNTVYLQMNSLKPEDTAVYYCAKAYRPPGYDSWGQGTQVTVSS
3. QVQLVESGGGLVQAGGSLRLSCAASGFTFVSNAMGWYRQAPGKERELVAAITYSGTRTYYADSVKGRFTISRDNAKNTVYLQMNSLKPEDTAVYYCAARRGYASAYYYWGQGTQVTVSS

Result:
1: low polyreactivity; 2: high polyreactivity; 3: high polyreactivity

Required: polyreactivity (PSR sort gate), one value per sequence below.
1. QVQLVESGGGLVQAGGSLRLSCAASGRIFRYYAMGWYRQAPGKERELVAAIRSGGSTNYADSVKGRFTISRDNATNTVYLQLNSLKPEDTAVYYCNARYRYFKGGYWGQGTQVTVAS
2. QVQLVESGGGLVQAGGSLRLSCAASGRIFWFYTMGWNRQAPGKERELVARITTSGGSTYYADSVKGRFTISRDNAKNTVYLQMNSLKPEDTAVYYCAARPRDYHSFSLDYYYWGQGTQVTVSS
3. QVQLEESGGGLVHAGGSLRLSCAASGFTFKYNAMGWYRQAPGKEREFVASISSGSTNYADSVKGRFTISRDNAKNTVYLQMNSLKPEDTAVYYCAASVSRGKRFRYGYVFKMDYWGQGTQVTVSS

Result:
1. high polyreactivity
2. high polyreactivity
3. low polyreactivity
